targetOfAssay: KMT9 (Homo sapiens)
Sequence (Q9Y5N5 whole entry): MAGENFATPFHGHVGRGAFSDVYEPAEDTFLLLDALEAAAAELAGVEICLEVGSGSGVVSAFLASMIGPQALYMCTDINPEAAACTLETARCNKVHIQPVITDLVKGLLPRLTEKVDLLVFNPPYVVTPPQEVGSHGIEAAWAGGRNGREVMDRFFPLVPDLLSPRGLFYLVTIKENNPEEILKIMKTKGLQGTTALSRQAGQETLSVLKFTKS
Sequence (Q9UI30 1-120 isoform Q9UI30-2 partner): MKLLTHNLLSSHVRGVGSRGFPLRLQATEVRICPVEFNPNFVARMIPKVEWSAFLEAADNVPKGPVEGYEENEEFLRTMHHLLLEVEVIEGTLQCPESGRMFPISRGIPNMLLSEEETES
experimentSummary: KMT9 thermal shift assay (SyproOrange)
Format: binding
conditions: ΔTm; 500 µM compound, 2 μM KMT9, 5X SO; read-out: Thermal shift
readout: ΔTm at 500 µM

Please review the following examples before continuing.
querysmiles=O[C@@H]1[C@@H](CNCCCNCCc2ccccc2)C[C@@H](n2cc(-c3[nH]ncc3Cl)c3cncnc32)[C@@H]1O readout="ΔTm at 500 µM" val="≤ 10 °C"
querysmiles=CCN(CCCNCCc1cccc(Oc2ccccc2)c1)C[C@H]1C[C@@H](n2ccc3c(NC)ncnc32)[C@H](O)[C@@H]1O readout="ΔTm at 500 µM" val="10 to 15 °C"
querysmiles=Nc1ncnc2c1c(Br)cn2[C@@H]1C[C@H](CNCCCNCCc2ccccc2F)[C@@H](O)[C@H]1O readout="ΔTm at 500 µM" val="15 to 20 °C"

// assay KMT9 (Homo sapiens), entry O[C@@H]1[C@@H](CNCCCNCCc2ccccc2)C[C@@H](n2cc3c4c(ncnc42)NCCC3)[C@@H]1O , ΔTm at 500 µM value = 10 to 15 °C

Item: Nc1ncnc2c1c(Br)cn2[C@@H]1C[C@H](CN2CC(CNCCc3ccccc3)C2)[C@@H](O)[C@H]1O | System: KMT9 (Homo sapiens) | ΔTm at 500 µM: 15 to 20 °C

Measured ΔTm at 500 µM (KMT9 (Homo sapiens)), entry C=Cc1cn([C@@H]2C[C@H](CNCCCNCCc3ccccc3)[C@@H](O)[C@H]2O)c2ncnc(C)c12 : ≤ 10 °C

Record Nc1ncnc2c1c(Br)cn2[C@@H]1C[C@H](C(=O)NC[C@@H]2CCCNC2)[C@@H](O)[C@H]1O / KMT9 (Homo sapiens), ΔTm at 500 µM recorded as 10 to 15 °C
